The reported measurements were obtained from a melting point compilation (Tetko et al.; mined from patent text by program, amines drawn as free bases though some values may be those of a salt).

Reported melting point by item:

Guide cases for melting point, answers given:
C=CCCn1cnc2c1c(=O)n(C)c(=O)n2C ... 110 °C
CC(C)Cn1c(CNC(=O)OC(C)(C)C)c(-c2cccs2)c2cc(O)ccc2c1=O ... 216 to 217 °C
O=C1CCCc2ccc(OCCCCN3CCN(c4cccc5c4OCCCO5)CC3)nc2N1 ... 200 to 201 °C
CCn1ncc2c(NCc3ccncc3)c3ccccc3nc21 ... 191 to 192 °C
O=C(O)CCc1cc(OCC2CC2)nn1Cc1ccc(C(F)(F)F)cc1Cl ... 115 to 116 °C
CC(C)(C)OC(=O)N1CCC2(CC1)C(=O)N(CC(=O)O)CN2CC1CCCCC1 ... 148 to 149 °C
O=C(O)COc1cccc2c1CCc1sc(S(=O)(=O)C(c3ccccc3)c3ccccc3)nc1-2 ... 219 to 221 °C
COc1cc(C#N)c2nc(-c3ccc(OC)c(F)c3)cc(O)c2c1 ... 218 to 220 °C

Kindly review the next molecule as well.
Requested field: melting point. Item: COc1nc(C)c(N2CCCn3c2nc2c(Br)ccc(C(OC(F)F)C(F)(F)F)c23)c(C)n1 (centres undefined)
211 to 213 °C

----------
PROPERTY: melting point

Examples with answers:
CN(C)C=Cc1cc(Cl)c([N+](=O)[O-])cc1Cl ... 173 to 175 °C
CC(=O)OCCCC#Cc1ccccc1S(N)(=O)=O ... 136 to 138 °C
Nc1ccc(N2CCN(Cc3ccccc3)CC2)nc1CS(=O)(=O)c1ccccc1 ... 175 to 176 °C
O=c1oc2ccccc2c(O)c1-c1ccc(Cl)c(Cl)c1 ... 262 °C
O=C(O)C(Cc1ccccc1)Oc1ccc(-c2ccc(-c3c(Cc4ccccc4)oc4ccccc34)cc2)cc1Br (stereo unspecified) ... 80 to 82 °C

Let us move to another entry and its melting point.
Return reported melting point; argument: Cc1ncc(CN2C(=O)c3ccccc3C2=O)n1-c1ccc(Cl)cc1Cc1ccccc1F
152 to 156 °C

----------
PROPERTY: melting point

COc1ccc2c(c1)OC(C)(C)C(NC(=O)c1cc(Cl)ccc1OC)C2=O (stereo unspecified) ... 174 °C

# ---- query compound ----
Value lookup for melting point; key = CCOc1cc(C(=O)N2CCc3cc(O)ccc3C2)cc(OCC)c1OCC
158 °C

----------
PROPERTY: melting point

Before answering, review these 5 worked examples.
CN(C)Cc1cc(-c2ccc3c(c2)CCO3)nn(CC2CC2)c1=O ... 109 to 110 °C
COc1ccc(/C=C/[N+](=O)[O-])c(F)c1 ... 80 to 82 °C
O=C1c2ccccc2-n2c1nc1ccc(Br)cc1c2=O ... 315 to 316 °C
Clc1ccc2c(c1)C(c1ccccc1)=NCc1nnc(COC(c3ccccc3)c3ccccc3)n1-2 ... 202 to 203 °C
ON=Cc1ccc(-c2ccc(O)cc2)c2occc12 ... 216 to 217 °C

State the recorded melting point for this entry: CS(=O)(=O)Nc1ccc(Cc2n[nH]c3c2c(=O)n(-c2ccccc2)c2ncccc32)cc1
306 to 307 °C

Fill blank: measured melting point of the compound O=c1[nH]c(=O)n(CCCCN2CCC(OC(c3ccccc3)c3ccccc3)CC2)c2ccccc12 is ____.
131 to 133 °C

Looking for the measured melting point of CC(=O)N1c2ccccc2-c2c([N+](=O)[O-])cnn2C1(C)C , can you help?
182 to 183 °C

Quick one: melting point of CCN(CC)C(=S)SC(C[N+](=O)[O-])c1ccccc1 (stereo unspecified) ?
81 to 82.5 °C

Entry under review: NC(=O)c1ccc(F)c2c1CC(N(CCCc1c[nH]c3ccc(Cl)cc13)C1CCC1)CO2 (stereo unspecified) . Reported melting point?
152 to 160 °C

Recorded melting point of CCCCOC(=O)C(CCc1ccccc1)NC1CSC(c2ccsc2)CN(CC(=O)O)C1=O (stereo unspecified) , please.
156 °C

Look at this compound and give its reported melting point. CN(C)CC(O)c1cc(C(F)(F)F)nc2c(C(F)(F)F)cccc12 (stereo unspecified)
80 to 80.7 °C

Endpoint output: melting point of CN(C)S(=O)(=O)c1cccc(Nc2ncc3cc4ccccc4n3n2)c1 . Value?
191 to 193 °C

Form field: reported melting point of Clc1nc2cc(Br)c(Br)cc2[nH]1
228 °C
